# Tested on: oilseed rape
# ASSAY_EXPLANATION: Test C preemergence
# Type: in vivo, Brassica napus
# ASSAY_SETUP: preemergence, 31 g ai/ha; visual rating, scale 0 to 100 (0 no effect, 100 complete control), 13 to 15 days
ENDPOINT_NAME: Oilseed Rape plant response rating
// no unit string in output, number only

Problem: Given the compound CCCc1cc(C(=O)NCC)nn1Cc1ccnc(C(F)(F)F)c1 , write its reported Oilseed Rape plant response rating.
Solution: 100

Problem: Given the compound CCc1cc(C(=O)NOC(C)C)nn1Cc1ccnc(C(F)(F)F)c1 , write its reported Oilseed Rape plant response rating.
Solution: 90

Problem: Given the compound CCCNC(=O)c1cc(CCC)n(Cc2cc(C(F)(F)F)nn2C)n1 , write its reported Oilseed Rape plant response rating.
Solution: 95

Problem: Given the compound CCc1cc(C(=O)NC(C)C)nn1Cc1ccnc(C(F)(F)F)c1 , write its reported Oilseed Rape plant response rating.
Solution: 100

Problem: Given the compound CCCNC(=O)c1cc(CCCl)n(Cc2ccnc(C(F)(F)F)c2)n1 , write its reported Oilseed Rape plant response rating.
Solution: 60

Problem: Given the compound CCCc1cc(C(=O)NCC(F)(F)F)nn1Cc1ccnc(C(F)(F)F)c1 , write its reported Oilseed Rape plant response rating.
Solution: 95

Problem: Given the compound CCCNC(=O)c1cc(CC)n(Cc2ccnc(OC(F)F)c2)n1 , write its reported Oilseed Rape plant response rating.
Solution: 75

Problem: Given the compound O=C(NCC(F)(F)F)c1cc(CCCl)n(Cc2ccnc(C(F)(F)F)c2)n1 , write its reported Oilseed Rape plant response rating.
Solution: 100

Problem: Given the compound CCONC(=O)c1cc(CC)n(Cc2cc(C(F)(F)F)no2)n1 , write its reported Oilseed Rape plant response rating.
Solution: 30
